Measured endpoint: melting point

INSERT INTO results (molecule, measured_endpoint, result_value) VALUES
  ('O=C1NCSc2ccsc21', 'melting point', '136 to 138 °C');

Need melting point of Cc1ccc(S(=O)(=O)OCCOc2ccc(Nc3ncc(C#N)c(-c4ccccc4)n3)cc2)cc1 , thanks. 147 °C

Please give the measured melting point for this molecule: Nc1ncc(-c2ccc(F)c(F)c2)nc1C(=O)Nc1cccnc1 232 to 234 °C

Recorded melting point of CN1CCN=C(c2ccccc2)c2cc([N+](=O)[O-])ccc21 , please. 186 to 187 °C

Which measured melting point value corresponds to CCC(=O)Nc1c(C(=O)c2cc(Cl)ccc2[N+](=O)[O-])[nH]c2cc(Cl)ccc12 ? 245 to 246 °C

# get_value(readout='melting point', item= Cc1nc(C#CCCc2nc3ccccc3o2)cn1C ) 117 to 119 °C

---

Parameter melting point: see the listing below.

INSERT INTO measurements (compound, measured_endpoint, result_value) VALUES
  ('COc1cc2nc(N3CCN(c4ccnc(N5CCOCC5)n4)CC3)nc(N)c2cc1OC', 'melting point', '232 to 233 °C'),
  ('COC(=O)C1CCc2oc3cc(OC)ccc3c2C1=O (stereo not given)', 'melting point', '173 to 175 °C'),
  ('O=C(O)CC1CCCC2CC(=O)NC12 (stereo not given)', 'melting point', '238 to 240 °C'),
  ('Cc1c(-c2ccc(O)cc2)sc(C#N)c1-c1cccc(O)c1', 'melting point', '220 to 222 °C');

Next compound, please.
Query (compound): CC[C@@H]1O[C@](C#CC2CC2)(C(F)(F)F)c2c(ccc(F)c2F)NC1=O (relative stereo) ; field requested: melting point 180 to 181 °C

---

Documented melting point across a set of compounds

INSERT INTO assay_data (compound, measured_endpoint, result_value) VALUES
  ('CC(=O)N(CC(C)C)C1NC(=O)N(c2cccs2)C(=O)N1', 'melting point', '138 to 139 °C'),
  ('CCCc1nc2c(N)nc3ccccc3c2n1CCS(C)(=O)=O', 'melting point', '212 to 214 °C'),
  ('O=C1CCN(C(=O)Cl)c2ccc(Cl)cc21', 'melting point', '114 to 116 °C'),
  ('COC(=O)c1nc(-c2ccc(Cl)c(N(C)C)c2F)nc(N)c1C1CC1', 'melting point', '156 to 158 °C'),
  ('Cc1coc(NC(=O)C(c2ccccc2)c2ccccc2)n1', 'melting point', '209 to 211 °C'),
  ('COC(=O)C=Cc1ccc(CO)cc1', 'melting point', '86 to 87 °C');

Query compound follows.
What melting point value was documented for this compound, CC(C(=O)O)c1ccc2cc(OCCCCCCc3cccc(O)c3O)ccc2c1 (configuration not stated) ? 136 to 139 °C

---

Residues, ends and D or L forms follow the SMILES beside them. *: point of attachment. Cbz = O=C(OCc1ccccc1)*
// reported melting point per item

Illustrative cases are given below, each with its answer.
INSERT INTO assay_data (compound, measured_endpoint, result_value) VALUES
  ('CN1CCC(C(=O)Nc2ccc(CN(C)C3CCOCC3)cc2)=Cc2cc(-c3ccc(N4CCCCC4)cc3)ccc21', 'melting point', '202 to 204 °C'),
  ('COC(=O)[C@H](Cc1ccccc1)NC(=O)[C@H](CC(C)C)NC(=O)OCc1ccccc1 (Cbz-Leu-Phe-OMe)', 'melting point', '91 to 93 °C'),
  ('CC(C)(C)OC(=O)N1CCN2C(=O)OC(c3ccccc3)C2C1 (stereo not drawn)', 'melting point', '133 to 135 °C');

What does the record list as melting point for O=C(c1ccnc(Cl)c1)N1CC2(CCN(CC=Cc3ccc(C(F)(F)F)cc3)CC2)c2cc(Cl)ccc21 ? 130 °C

Reported melting point, compound CN(C)C(=N)Nc1ccccc1-c1cccc(F)c1 : ____ 109 to 110 °C

Requested field: melting point. Item: O=c1occc2ccc(Oc3ccc(Cl)cc3)cc12 76.5 to 77 °C

Given the entry COc1ccc2c(cc3n2CCc2ccccc2-3)n1 , report its measured melting point. 179 to 180 °C

So what does the record say about melting point for CC(C)(C)OC(=O)N[C@@H](Cc1ccccc1)C(=O)NCCC(=O)OCc1ccccc1 ? 93 to 96 °C

// data source = a melting point compilation (Tetko et al.; mined from patent text by program, amines drawn as free bases though some values may be those of a salt)
